tested on: CCRIS mutagenicity, Ames/micronucleus/aberration tests; assay: CCRIS mutagenicity studies; settings: Test System: AMES SALMONELLA TYPHIMURIUM; Strain/Indicator: TA100; Metabolic Activation: NONE; Method: PREINCUBATION
Activity calls are given as the source filed them. How the calls were made is not given here.
The categories you may choose from are active, inactive

Ask | GET /call?item= NNc1ccccc1 returns the recorded outcome of this test.
Reply | inactive

Ask | Recorded test call requested for Cc1ccc(C(C)(C)C)cc1
Reply | inactive

Ask | Which result was noted for this molecule in the test: Cc1ccccc1C=O
Reply | inactive

Ask | For O=C(O)c1ccc(/C=N/n2nnc3c([nH]c4ccccc43)c2=O)cc1 , which call appears in the assay record?
Reply | active

Ask | // outcome(item) with item = c1cc2c3c(c1)ccc1cccc(c13)C2
Reply | inactive

Ask | Query: recorded result category for CCOCCO in this test
Reply | inactive

Ask | # fetch the recorded call for CCCCOCCO here
Reply | inactive

Ask | Please indicate how the test categorized CCCCCC(=O)Cc1cc(O)cc2c1C(=O)Oc1cc(O)c(C(=O)O)c(CCCCC)c1O2 .
Reply | inactive

Ask | State the result this test recorded for CCCCCCCCCCO .
Reply | inactive

Ask | Outcome? ClC1(Cl)C2(Cl)C3(Cl)C4(Cl)C(Cl)(Cl)C5(Cl)C3(Cl)C1(Cl)C5(Cl)C24Cl (stereo not drawn)
Reply | inactive

Ask | Hi team, can someone confirm the assay call for C=CC(O)C=C ?
Reply | inactive

Ask | State the result this test recorded for CC(=O)[C@]1(O)Cc2c(O)c3c(c(O)c2[C@@H](O[C@H]2C[C@H](N)[C@H](OC(C[C@H](C)O)O[C@@H](C)C=O)[C@H](C)O2)C1)C(=O)c1c(O)cccc1C3=O (stereo partly drawn) .
Reply | active

Ask | # lookup: test call for COC(F)(F)C(Cl)Cl
Reply | inactive

* * *

test system: CCRIS mutagenicity, Ames/micronucleus/aberration tests; test: CCRIS mutagenicity studies; conditions: Test System: AMES SALMONELLA TYPHIMURIUM; Strain/Indicator: TA1537; Metabolic Activation: NONE; Method: STANDARD PLATE
Active and inactive are the calls of the source. No rule for the calls is given here.
// allowed return values: active, inactive

Ask | # lookup: test call for Cc1cc(N(CCO)CCO)ccc1N=Nc1ccc(N)cc1
Reply | inactive

Ask | Name the outcome recorded for Cc1snc2ccccc12 in the assay.
Reply | inactive

Ask | Could you please tell me the result logged for C[C@H]1CCC[C@H](O)CCCCCc2cc(O)cc(O)c2C(=O)O1 in this assay?
Reply | inactive

Ask | Call for entry O=C(OCc1ccccc1)c1cccc2cccnc12 :
Reply | inactive

Ask | Please indicate how the test categorized NCCNCCNCCNCCN .
Reply | inactive

Ask | Name the outcome recorded for Cc1cccc(OCC(O)CNC(C)(C)C)c1C (stereo unspecified) in the assay.
Reply | inactive

Ask | Identify the outcome logged in this assay for the compound shown: Cc1cc(O)c2c(c1)C(=O)c1c(c(O)cc(O)c1-c1c(O)cc(O)c3c1C(=O)c1cc(C)cc(O)c1C3=O)C2=O
Reply | inactive

Ask | // param item: C[C@H]1[C@H](C)CC[C@]2(C(=O)O[C@@H]3O[C@H](CO[C@@H]4O[C@H](CO)[C@@H](O[C@@H]5O[C@@H](C)[C@H](O)[C@@H](O)[C@H]5O)[C@H](O)[C@H]4O)[C@@H](O)[C@H](O)[C@H]3O)CC[C@]3(C)C(=CC[C@@H]4[C@@]5(C)C[C@@H](O)[C@H](O)[C@@](C)(CO)[C@@H]5CC[C@]43C)[C@H]12 ; yields the recorded call
Reply | inactive

Ask | Each compound tested received a call. Report the one for CC(C)CCON=O .
Reply | inactive

Ask | Call for entry CC(C)C1=CC2=CC[C@@H]3[C@](C)(CCC[C@@]3(C)C(=O)O)[C@H]2CC1 :
Reply | inactive

Ask | Status in this test for O=NN1CCC[C@H]1c1cccnc1 ?
Reply | inactive

Ask | Recorded test outcome, item CCc1cccc2c3c([nH]c12)C(CC)(CC(=O)O)OCC3 (stereo unspecified)
Reply | inactive

Ask | Short answer needed: outcome of this test for CCOc1ccccc1OCC1CNCCO1 (stereo unspecified) ?
Reply | inactive

Ask | Hello, I am checking results. What call was entered for C=CC(=O)OCCOCCOC(=O)C=C ?
Reply | inactive

Ask | // outcome(item) with item = Nc1ccc(Cl)c(C(F)(F)F)c1
Reply | inactive

Ask | Please let me know the test result on file for CCC(C)(C)OC .
Reply | inactive

Ask | Assay result, entry C#C[C@]1(O)CC[C@H]2[C@@H]3CCC4=C(CCC(=O)C4)[C@H]3CC[C@@]21C — outcome?
Reply | inactive

Ask | Field: outcome | Entry: CCC1(c2ccccc2)C(=O)NC(=O)NC1=O
Reply | inactive

Ask | Give the logged outcome of this assay for the following compound: COC(=O)c1cc2c(c3c1c([N+](=O)[O-])cc1c(OC)cccc13)OCO2
Reply | active

Ask | Fill in: this test's call for CN(C)CCNC(=O)c1ccc2nc3ccccc3c(N)c2c1 is ___
Reply | inactive

Ask | Each compound tested received a call. Report the one for CCOC(=O)COc1ccc2c(=O)cc(-c3ccccc3)oc2c1 .
Reply | inactive

Ask | State the result this test recorded for CCN(N=O)c1ccccc1 .
Reply | inactive

Ask | Which outcome was entered for the compound O=C(O)c1cc(I)cc2cccnc12 in this test?
Reply | inactive

Ask | Call for entry Cc1c(N)c(=O)n(-c2ccccc2)n1C :
Reply | inactive

Ask | Record request — test call for CCc1cc(O)cc2c3c([nH]c12)C(CC)(CC(=O)O)OCC3 (stereo unspecified)
Reply | inactive

Ask | Please indicate how the test categorized Nc1cccc([N+](=O)[O-])c1O .
Reply | inactive
